Tested on: SK-ES-1
Test: relative viability vs DMSO control (72 h) (fraction); higher = more viable cells
Details: 0.00051 µM
MEASUREMENT LABEL: relative viability
The reply should be a number, written without any unit.

Complete the entry with relative viability for CC(C)N1CCN(Cc2cnc(-c3cc(-c4cccc5[nH]ccc45)cc4[nH]ncc34)o2)CC1
0.915

Complete the entry with relative viability for CNC(=O)c1cc(Oc2ccc(NC(=O)Nc3ccc(Cl)c(C(F)(F)F)c3)c(F)c2)ccn1
1.03

Complete the entry with relative viability for O=C(Cc1ccc(-c2ccc(OCCN3CCOCC3)cc2)cn1)NCc1ccccc1
1.11

Complete the entry with relative viability for C[C@@H]1CCN(C(=O)CC#N)C[C@@H]1N(C)c1ncnc2[nH]ccc12
1.05

Complete the entry with relative viability for N#CC[C@H](C1CCCC1)n1cc(-c2ncnc3[nH]ccc23)cn1
0.974

Complete the entry with relative viability for Cc1ccc(F)c(NC(=O)Nc2ccc(-c3cccc4[nH]nc(N)c34)cc2)c1
1.07
